# targetOrSystem: F508delCFTR (Homo sapiens, UniProt P13569, DEL508-508)
# Construct: expressed in transfected cells; host or cells: CFBE41o- human lung derived epithelial cell line, doxycycline-induced expression
# procedureText: Cell Surface Expression-Horse Radish Peroxidase (CSE-HRP) assay in CFBE41o-F508delCFTR-HRP cells
# Type: cell-based
# conditionDetails: with co-corrector 2 μM; CFBE41o-F508delCFTR-HRP cells, 18-24 hours at 33° C.; read-out: EC50 (with co-corrector)
# Description: A cellular assay for measuring the F508delCFTR cell surface expression after correction with test compounds either without or with a co-corrector (2 μM of 3-[(2R,4R)-4-({[1-(2,2-difluoro-1,3-benzodioxol-5-yl)cyclopropyl]carbonyl}amino)-7-methoxy-3,4-dihydro-2H-chromen-2-yl]benzoic acid), was developed in human lung derived epithelial cell line (CFBE41o-) (Veit G et al, (2012) Mol Biol Cell. 23(21): 4188-4202). […] The raw counts from the experiment were analyzed using Accelrys® Assay Explorer v3.3. […]
pEC50: −log10 of the molar value.
endpointName: pEC50

Worked examples follow.
molecule: CCOc1ccc(CC)cc1[C@@]1(C(=O)NS(=O)(=O)c2cccc3nc(C)ccc23)CCCO1
endpointName: pEC50
obsValue: 6.08

molecule: CCc1ccc(Oc2ccccc2)c([C@@]2(C(=O)NS(=O)(=O)c3cccc4nc(C)ccc34)CCCO2)c1
endpointName: pEC50
obsValue: 6.32

molecule: COc1ccc(C)cc1[C@@]1(C(=O)NS(=O)(=O)c2cccc3nc(C)ccc23)C[C@@H](OC)CO1
endpointName: pEC50
obsValue: 5.92

molecule: CCc1ccc(Oc2ccccc2)c(C2(C(=O)NS(=O)(=O)c3cccc4nc(C)ccc34)CCCO2)c1 (stereo not shown)
endpointName: pEC50
obsValue: 5.81

a = CCc1ccc(Oc2cccnc2OC(F)F)c(C2(C(=O)NS(=O)(=O)c3cccc4nc(C)ccc34)CCCO2)c1 (stereo not shown)
b = COc1ccc(C)cc1[C@@]1(C(=O)NS(=O)(=O)c2cccc3nc(C)ccc23)CC[C@H](c2ccccc2)O1
Input line: Higher pEC50: a or b ? Answer with the label corresponding to your selection.
Output line: b

* * *

# targetOrSystem: F508delCFTR (Homo sapiens, UniProt P13569, DEL508-508)
# Construct: expressed in transfected cells; host or cells: CFBE41o- human lung derived epithelial cell line, doxycycline-induced expression
# procedureText: Cell Surface Expression-Horse Radish Peroxidase (CSE-HRP) assay in CFBE41o-F508delCFTR-HRP cells
# Assay type: cell-based
# conditionDetails: without co-corrector; CFBE41o-F508delCFTR-HRP cells, 18-24 hours at 33° C.; read-out: EC50 (without co-corrector)
endpointName: EC50 (nM)

a = COc1ccc([C@@H]2CO[C@@](C(=O)NS(=O)(=O)c3cccc4nc(C)ccc34)(c3cc(C)ccc3OC)C2)cc1
b = COc1ccccc1[C@H]1CO[C@@](C(=O)NS(=O)(=O)c2cccc3nc(C)ccc23)(c2cc(C)ccc2OC)C1
Input line: Please let me know which one, a or b , has a lower measured EC50 value. Answer with the label corresponding to your selection.
Output line: a

1 = COc1ccc(C)cc1[C@@]1(C(=O)NS(=O)(=O)c2cccc3nc(C)ccc23)CC[C@@H](c2ccccc2)O1
2 = CCc1ccc(Oc2ccccc2)c(C2(C(=O)NS(=O)(=O)c3cccc4nc(C)ccc34)CCCO2)c1 (stereo not shown)
Input line: Please let me know which one, 1 or 2 , has a lower measured EC50 value. Answer with the label corresponding to your selection.
Output line: 1
(1: 590 nM, 2: 2660 nM)

* * *

# targetOrSystem: F508del/F508del CFTR (Homo sapiens, UniProt P13569, DEL508-508)
# Construct: cells isolated from CF patients with the homozygous mutation; endogenous in cells; host or cells: primary human bronchial epithelial (hBE) cells from CF patients homozygous for F508del
# Sequence (P13569 with tags, fused parts or gaps DEL508-508): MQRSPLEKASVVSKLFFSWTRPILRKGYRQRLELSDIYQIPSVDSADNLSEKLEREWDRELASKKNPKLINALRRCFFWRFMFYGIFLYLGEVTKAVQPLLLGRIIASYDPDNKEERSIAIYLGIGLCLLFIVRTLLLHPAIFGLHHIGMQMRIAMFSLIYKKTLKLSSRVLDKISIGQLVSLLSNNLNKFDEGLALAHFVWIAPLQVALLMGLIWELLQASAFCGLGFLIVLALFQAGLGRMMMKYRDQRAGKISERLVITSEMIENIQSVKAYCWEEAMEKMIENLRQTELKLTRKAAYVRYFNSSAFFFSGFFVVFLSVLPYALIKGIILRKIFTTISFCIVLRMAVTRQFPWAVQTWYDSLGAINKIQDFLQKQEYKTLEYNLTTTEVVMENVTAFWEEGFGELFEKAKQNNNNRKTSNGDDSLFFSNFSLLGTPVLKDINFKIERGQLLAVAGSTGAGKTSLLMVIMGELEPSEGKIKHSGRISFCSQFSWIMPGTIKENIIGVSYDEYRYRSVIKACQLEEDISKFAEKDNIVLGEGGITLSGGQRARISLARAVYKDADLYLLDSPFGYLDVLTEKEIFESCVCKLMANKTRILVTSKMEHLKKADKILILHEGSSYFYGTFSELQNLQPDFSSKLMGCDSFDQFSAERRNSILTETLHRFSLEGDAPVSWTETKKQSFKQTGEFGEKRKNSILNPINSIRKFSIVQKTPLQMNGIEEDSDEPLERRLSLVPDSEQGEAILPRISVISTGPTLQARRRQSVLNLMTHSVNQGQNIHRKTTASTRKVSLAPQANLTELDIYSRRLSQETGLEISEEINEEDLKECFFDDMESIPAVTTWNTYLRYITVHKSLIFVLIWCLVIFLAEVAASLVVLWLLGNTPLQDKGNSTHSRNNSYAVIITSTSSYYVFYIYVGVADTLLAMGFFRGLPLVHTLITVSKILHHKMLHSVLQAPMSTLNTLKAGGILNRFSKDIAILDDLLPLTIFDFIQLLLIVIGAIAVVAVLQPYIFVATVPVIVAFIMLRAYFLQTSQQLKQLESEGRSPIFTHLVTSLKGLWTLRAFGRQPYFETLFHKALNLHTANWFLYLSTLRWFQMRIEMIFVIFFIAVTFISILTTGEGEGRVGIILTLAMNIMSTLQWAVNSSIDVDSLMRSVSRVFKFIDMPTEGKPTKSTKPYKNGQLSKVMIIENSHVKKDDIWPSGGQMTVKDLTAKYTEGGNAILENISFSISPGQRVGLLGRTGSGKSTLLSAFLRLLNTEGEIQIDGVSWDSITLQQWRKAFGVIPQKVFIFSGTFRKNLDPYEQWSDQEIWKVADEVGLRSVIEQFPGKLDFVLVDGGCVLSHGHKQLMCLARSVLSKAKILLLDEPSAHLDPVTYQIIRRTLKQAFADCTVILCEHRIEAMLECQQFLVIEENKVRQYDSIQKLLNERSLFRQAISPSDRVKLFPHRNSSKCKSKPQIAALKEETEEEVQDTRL
# procedureText: Trans-Epithelial Current Clamp (TECC) assay using primary human bronchial epithelial cells
# Format: cell-based
# conditionDetails: maximum percent activity relative to positive control (co-corrector 0.15 μM + potentiator 0.45 μM = 100%)
endpointName: Emax (% Dual)

Worked examples follow.
compound: COc1ccc(C)cc1[C@]1(C(=O)NS(=O)(=O)c2cccc3nc(N)ccc23)CC(C)(C)CO1 [Example 34]
targetOrSystem: F508del/F508del CFTR (Homo sapiens, UniProt P13569, DEL508-508)
Emax (% Dual): 284

compound: COc1ccc([C@@H]2CO[C@@](C(=O)NS(=O)(=O)c3cccc4nc(C)ccc34)(c3cc(C)ccc3OC)C2)cc1 [Example 44]
targetOrSystem: F508del/F508del CFTR (Homo sapiens, UniProt P13569, DEL508-508)
Emax (% Dual): 335

compound: CCc1ccc(Oc2ccccc2)c([C@@]2(C(=O)NS(=O)(=O)c3cccc4nc(C)ccc34)CCCO2)c1 [Example 23]
targetOrSystem: F508del/F508del CFTR (Homo sapiens, UniProt P13569, DEL508-508)
Emax (% Dual): 241

P = COc1ccc(C)cc1[C@]1(C(=O)NS(=O)(=O)c2cccc3nc(C)ccc23)C[C@H](c2ccccc2)CO1 [Example 37]
Q = CCc1ccc(Oc2cccnc2OC(F)F)c([C@@]2(C(=O)NS(=O)(=O)c3cccc4nc(C)ccc34)CCCO2)c1 [Example 27]
R = CCc1ccc(OC[C@H](C)OC)c([C@]2(C(=O)NS(=O)(=O)c3cccc4nc(C)ccc34)CCCO2)c1 [Example 13]
Input line: Hey, quick one: sort these by Emax (% Dual), largest value first please. Write out the labels following the order that was asked for.
Output line: P, Q, R

* * *

# targetOrSystem: F508delCFTR (Homo sapiens, UniProt P13569, DEL508-508)
# Construct: expressed in transfected cells; host or cells: CFBE41o- human lung derived epithelial cell line, doxycycline-induced expression
# procedureText: Cell Surface Expression-Horse Radish Peroxidase (CSE-HRP) assay in CFBE41o-F508delCFTR-HRP cells
# Assay type: cell-based
# conditionDetails: without co-corrector; normalized to on-plate positive control; read-out: Maximum % activity (without co-corrector)
endpointName: Emax (%)

Worked examples follow.
substanceSmiles: COc1ccc(C)cc1[C@]1(C(=O)NS(=O)(=O)c2cccc3nc(C)ccc23)C[C@@](C)(OC)CO1
Emax / %: 100
--
substanceSmiles: CCOc1ccc(CC)cc1[C@@]1(C(=O)NS(=O)(=O)c2cccc3nc(C)ccc23)CCCO1
Emax / %: 865
--
substanceSmiles: COc1ccccc1[C@@H]1CO[C@@](C(=O)NS(=O)(=O)c2cccc3nc(C)ccc23)(c2cc(C)ccc2OC)C1
Emax / %: 470
--
substanceSmiles: COc1ccc(C)cc1[C@@]1(C(=O)NS(=O)(=O)c2cccc3nc(C)ccc23)CC[C@H](c2ccccc2)O1
Emax / %: 735

a = COc1ccc(C)cc1[C@@]1(C(=O)NS(=O)(=O)c2cccc3nc(C)ccc23)C[C@H](OC)CO1
b = CCc1ccc(Oc2cccnc2OC)c([C@@]2(C(=O)NS(=O)(=O)c3cccc4nc(C)ccc34)CCCO2)c1
c = CCc1ccc(Oc2cccnc2OC(F)F)c([C@@]2(C(=O)NS(=O)(=O)c3cccc4nc(C)ccc34)CCCO2)c1
d = CCc1ccc(OC[C@H](C)OC)c([C@]2(C(=O)NS(=O)(=O)c3cccc4nc(C)ccc34)CCCO2)c1
e = CCOc1ccc(CC)cc1[C@]1(C(=O)NS(=O)(=O)c2cccc3nc(C)ccc23)CCCO1
Input line: Hey, quick one: sort these by Emax, largest value first please. Write out the labels following the order that was asked for.
Output line: c, b, e, a, d
(c: 709%, b: 476%, e: 303%, a: 180%, d: 122%)

* * *

# targetOrSystem: F508delCFTR (Homo sapiens, UniProt P13569, DEL508-508)
# Construct: expressed in transfected cells; host or cells: CFBE41o- human lung derived epithelial cell line, doxycycline-induced expression
# procedureText: Cell Surface Expression-Horse Radish Peroxidase (CSE-HRP) assay in CFBE41o-F508delCFTR-HRP cells
# Format: cell-based
# conditionDetails: without co-corrector; CFBE41o-F508delCFTR-HRP cells, 18-24 hours at 33° C.; read-out: EC50 (without co-corrector)
endpointName: EC50 (µM)

Worked examples follow.
substanceSmiles: CCOc1ccc(CC)cc1[C@@]1(C(=O)NS(=O)(=O)c2cccc3nc(C)ccc23)CCCO1
endpointName: EC50
unitOfMeasurement: µM
obsValue: 1.65
//
substanceSmiles: COc1ccc(C)cc1[C@@]1(C(=O)NS(=O)(=O)c2cccc3nc(C)ccc23)CC[C@H](c2ccccc2)O1
endpointName: EC50
unitOfMeasurement: µM
obsValue: 0.7
//
substanceSmiles: COc1ccc(C)cc1[C@@]1(C(=O)NS(=O)(=O)c2cccc3nc(C)ccc23)CC2(CC2)CO1
endpointName: EC50
unitOfMeasurement: µM
obsValue: 1.51
//
substanceSmiles: COc1ccc(C)cc1[C@]1(C(=O)NS(=O)(=O)c2cccc3nc(C)ccc23)CC[C@H](c2ccccc2)O1
endpointName: EC50
unitOfMeasurement: µM
obsValue: 1.11

1 = CCOc1ccc(C)cc1[C@@]1(C(=O)NS(=O)(=O)c2cccc3nc(C4CC4)ccc23)CCCO1
2 = COc1ccc(C)cc1[C@@]1(C(=O)NS(=O)(=O)c2cccc3nc(C)ccc23)C[C@@H](C)CO1
3 = COc1ccc(C)cc1[C@]1(C(=O)NS(=O)(=O)c2cccc3nc(C)ccc23)C[C@@](C)(OC)CO1
Input line: In this exercise, place the 3 compounds in ascending sequence of their recorded EC50. Write out the labels following the order that was asked for.
Output line: 2, 1, 3
(2: 0.88 µM, 1: 1.36 µM, 3: 5.16 µM)
